# target-system: PI3Kβ (Homo sapiens (Human))
# Sequence (P42338 whole entry, canonical isoform): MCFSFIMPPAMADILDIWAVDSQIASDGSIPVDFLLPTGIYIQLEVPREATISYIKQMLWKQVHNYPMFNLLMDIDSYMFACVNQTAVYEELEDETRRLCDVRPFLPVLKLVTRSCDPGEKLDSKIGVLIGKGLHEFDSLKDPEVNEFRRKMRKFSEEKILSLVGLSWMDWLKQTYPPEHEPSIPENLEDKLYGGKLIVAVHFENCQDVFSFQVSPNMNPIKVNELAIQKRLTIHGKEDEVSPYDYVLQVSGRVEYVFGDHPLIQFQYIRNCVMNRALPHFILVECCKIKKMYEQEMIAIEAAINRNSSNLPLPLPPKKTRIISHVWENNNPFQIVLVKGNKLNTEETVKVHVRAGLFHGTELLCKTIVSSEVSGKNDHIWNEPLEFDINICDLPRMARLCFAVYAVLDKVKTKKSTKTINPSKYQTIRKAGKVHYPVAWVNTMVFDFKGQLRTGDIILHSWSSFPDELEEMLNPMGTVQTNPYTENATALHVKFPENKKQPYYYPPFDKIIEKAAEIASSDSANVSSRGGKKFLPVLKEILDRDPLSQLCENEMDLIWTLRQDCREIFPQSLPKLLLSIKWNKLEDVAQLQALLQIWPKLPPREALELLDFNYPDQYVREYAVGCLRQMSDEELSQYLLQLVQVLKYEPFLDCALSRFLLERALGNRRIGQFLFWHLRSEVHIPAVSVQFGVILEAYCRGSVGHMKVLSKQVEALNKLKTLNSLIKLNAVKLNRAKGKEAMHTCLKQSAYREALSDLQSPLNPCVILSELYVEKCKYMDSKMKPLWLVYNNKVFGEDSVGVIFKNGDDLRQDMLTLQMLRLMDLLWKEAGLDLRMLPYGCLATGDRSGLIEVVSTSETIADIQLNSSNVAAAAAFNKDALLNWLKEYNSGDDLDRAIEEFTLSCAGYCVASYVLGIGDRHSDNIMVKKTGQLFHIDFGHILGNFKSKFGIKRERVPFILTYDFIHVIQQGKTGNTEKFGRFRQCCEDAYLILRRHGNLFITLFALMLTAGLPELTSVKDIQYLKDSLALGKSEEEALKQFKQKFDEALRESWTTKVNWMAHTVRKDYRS
# Sequence (P27986 whole entry partner, canonical isoform): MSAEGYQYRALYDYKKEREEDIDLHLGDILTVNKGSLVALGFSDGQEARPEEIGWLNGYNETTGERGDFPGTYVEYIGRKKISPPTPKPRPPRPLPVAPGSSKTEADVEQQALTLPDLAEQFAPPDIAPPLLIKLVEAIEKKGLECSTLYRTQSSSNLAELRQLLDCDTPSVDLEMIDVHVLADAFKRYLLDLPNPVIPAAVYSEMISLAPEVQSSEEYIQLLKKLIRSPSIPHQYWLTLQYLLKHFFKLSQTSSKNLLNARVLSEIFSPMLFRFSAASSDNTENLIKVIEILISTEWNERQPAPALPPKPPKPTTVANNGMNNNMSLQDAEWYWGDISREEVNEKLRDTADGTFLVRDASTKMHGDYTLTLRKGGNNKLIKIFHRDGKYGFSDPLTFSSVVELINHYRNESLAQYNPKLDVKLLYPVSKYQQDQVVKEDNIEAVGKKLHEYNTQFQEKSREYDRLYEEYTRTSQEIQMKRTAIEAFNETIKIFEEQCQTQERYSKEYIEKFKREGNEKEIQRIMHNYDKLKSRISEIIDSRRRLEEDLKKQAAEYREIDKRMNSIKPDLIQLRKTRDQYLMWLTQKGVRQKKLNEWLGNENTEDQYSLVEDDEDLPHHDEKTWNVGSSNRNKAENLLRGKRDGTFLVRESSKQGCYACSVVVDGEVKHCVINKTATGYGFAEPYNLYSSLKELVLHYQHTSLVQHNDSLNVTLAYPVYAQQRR
# procedure-summary: Enzymatic activity of PI3K isoforms, TR-FRET assay (PI3Kβ)
# conditions: 2× Km ATP, geometric mean if more than one value
reported-endpoint: IC50 (nM)

Study these solved cases before continuing.
given_smiles=C[C@H](Nc1ncnc(N)c1C#N)c1nc2cccc(Cl)c2c(=O)n1-c1cncc(N)c1 reported_endpoint=IC50 output_unit=nM value_observed=460
given_smiles=N#Cc1c(N)nc(N)nc1N[C@H](c1nc2cccc(Cl)c2c(=O)n1-c1ccc(N)nc1)C1CC1 reported_endpoint=IC50 output_unit=nM value_observed=2

(a) C[C@H](Nc1nc(N)nc(N)c1C#N)c1nc2cccc(Cl)c2c(=O)n1-c1ccc(N)nc1
(b) C[C@H](Nc1nc(N)nc(N)c1Cl)c1nc2c(F)ccc(Cl)c2c(=O)n1-c1ccc(N)nc1
Between the entries labelled a and b , which has a larger IC50 value on record? Please respond with the label that marks your chosen entry.
b

Ref: patent US9221795B2
